Where do these numbers come from? They come from ChEMBL document CHEMBL1649119.

protocol details: Apparent volume of distribution in young healthy human at 4 mg/kg, iv administered as single dose 30 mins infusion
Format: ADME, organism-based
Parameters: dose 4 mg/kg, route intravenous
details: in vivo
readout kind: Vd (L/kg)
One number for each entry, in L/kg.

**Query** What value of measured Vd is listed for CCCCCCCCCC(=O)N[C@@H](Cc1c[nH]c2ccccc12)C(=O)N[C@H](CC(N)=O)C(=O)N[C@@H](CC(=O)O)C(=O)N[C@@H]1C(=O)NCC(=O)N[C@@H](CCCN)C(=O)N[C@@H](CC(=O)O)C(=O)N[C@H](C)C(=O)N[C@@H](CC(=O)O)C(=O)NCC(=O)N[C@H](CO)C(=O)N[C@@H]([C@H](C)CC(=O)O)C(=O)N[C@@H](CC(=O)c2ccccc2N)C(=O)O[C@@H]1C ?
**Result** 0.15
